Data origin: PubChem BioAssay (NCI)

- System: SF-268 CNS
- EXPERIMENT_SUMMARY: NCI tumour cell line growth inhibition, 48 h
ENDPOINT_LABEL: TGI

O=C(O)c1cn(C2CC2)c2cc(N3CCN(Cc4c(O)ccc5ccccc45)CC3)c(F)cc2c1=O > 100 µM
O=c1[nH]c(=O)n(CCOCP(=O)(O)O)nc1Br > 100 µM
C=CCOC(=O)Nc1cccn([C@H](CC(C)C)C(=O)NCCC(C)C)c1=O > 100 µM

----------
- System: U251 CNS
- EXPERIMENT_SUMMARY: NCI tumour cell line growth inhibition, 48 h
ENDPOINT_LABEL: TGI

C=C1c2nc3ccccc3n2C=C(c2ccc(Cl)cc2)N1c1ccc(OCCN2CCCCC2)cc1 > 100 µM
NC(=O)c1cc(Br)ccc1NC(=O)/C=C/c1ccccc1 > 43.4 µM
COc1ccc2c(c1)CCCc1c-2nc2ccccc2c1N 25.2 µM
O=C1[C@@H](O)[C@@H]2CCCC[C@@]23CCCN13 > 100 µM
O=C(O)Cc1ccc(N=Nc2c(O)c(C(=O)O)cc3ccccc23)cc1 > 100 µM
